Target: JAK1 (Homo sapiens, UniProt P23458)
Sequence (P23458 whole entry): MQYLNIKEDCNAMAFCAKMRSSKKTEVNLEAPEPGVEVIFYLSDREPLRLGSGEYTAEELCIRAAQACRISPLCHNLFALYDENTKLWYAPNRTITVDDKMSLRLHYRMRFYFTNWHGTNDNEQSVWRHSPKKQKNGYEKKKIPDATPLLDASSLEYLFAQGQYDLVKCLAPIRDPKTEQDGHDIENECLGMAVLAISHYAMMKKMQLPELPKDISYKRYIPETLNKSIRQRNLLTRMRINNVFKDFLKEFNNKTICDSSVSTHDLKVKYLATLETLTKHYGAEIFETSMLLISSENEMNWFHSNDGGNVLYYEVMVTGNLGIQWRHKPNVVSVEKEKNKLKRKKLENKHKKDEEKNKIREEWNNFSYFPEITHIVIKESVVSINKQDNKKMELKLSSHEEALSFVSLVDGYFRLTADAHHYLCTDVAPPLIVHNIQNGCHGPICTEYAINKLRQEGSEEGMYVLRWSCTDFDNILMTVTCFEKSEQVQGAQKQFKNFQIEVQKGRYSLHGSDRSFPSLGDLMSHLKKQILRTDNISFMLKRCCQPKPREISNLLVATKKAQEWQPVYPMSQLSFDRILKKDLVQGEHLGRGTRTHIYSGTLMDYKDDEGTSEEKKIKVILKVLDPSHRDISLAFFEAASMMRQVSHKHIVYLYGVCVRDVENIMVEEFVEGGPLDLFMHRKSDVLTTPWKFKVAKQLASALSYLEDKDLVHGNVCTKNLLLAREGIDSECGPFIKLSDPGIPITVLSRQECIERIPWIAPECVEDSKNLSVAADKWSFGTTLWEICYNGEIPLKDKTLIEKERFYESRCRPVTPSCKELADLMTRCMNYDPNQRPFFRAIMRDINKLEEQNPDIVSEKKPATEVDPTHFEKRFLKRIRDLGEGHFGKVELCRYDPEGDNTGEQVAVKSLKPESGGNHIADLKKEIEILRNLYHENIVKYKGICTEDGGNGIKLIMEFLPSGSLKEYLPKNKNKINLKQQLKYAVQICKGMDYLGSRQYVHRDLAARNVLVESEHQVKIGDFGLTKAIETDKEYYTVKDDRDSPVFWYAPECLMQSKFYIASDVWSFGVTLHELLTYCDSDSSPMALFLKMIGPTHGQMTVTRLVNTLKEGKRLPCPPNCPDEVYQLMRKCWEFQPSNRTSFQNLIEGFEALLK
Experiment: JAK kinase activity inhibition, TR-FRET (JAK1)
Assay type: biochemical
Conditions: TR-FRET kinase assay
pIC50: −log10 of the molar value.
Assign class by pIC50: not lower than 10 means TRUE; lower than 10 means FALSE.

Cc1cc(Nc2nc(N[C@@H]3C[C@H]4CCC[C@@H](C3)N4S(=O)(=O)N3CC(C#N)C3)nc3sccc23)n[nH]1 : TRUE
Cc1cc(Nc2nc(N[C@@H]3C[C@H]4CCC[C@@H](C3)N4C(=O)CN3CCOCC3)nc3sccc23)n[nH]1 : FALSE
Cc1cc(Nc2nc(N[C@@H]3C[C@H]4CC[C@@H](C3)N4S(=O)(=O)N3CC(C#N)C3)nc3cc(C4CC4)ccc23)n[nH]1 : TRUE
CN(c1nc(Nc2cc(CO)[nH]n2)c2ccc(Cl)cc2n1)[C@@H]1C[C@H]2CCC[C@@H](C1)N2CCC#N : FALSE

Query: Is reported pIC50 greater than or equal to 10 here: `Cc1cc(Nc2nc(N[C@@H]3C[C@H]4CC[C@@H](C3)N4CCC#N)nc3cnccc23)n[nH]1`
Result: FALSE

Query: Assess whether reported pIC50 for `Cc1cnc(Nc2cc3ncccc3c(N[C@@H]3C[C@H]4CC[C@@H](C3)N4CCC#N)n2)s1` sits at 10 or higher.
Result: FALSE
